Target: human 5-HT2C receptor (Homo sapiens, UniProt P28335)
Sequence (P28335 33-458): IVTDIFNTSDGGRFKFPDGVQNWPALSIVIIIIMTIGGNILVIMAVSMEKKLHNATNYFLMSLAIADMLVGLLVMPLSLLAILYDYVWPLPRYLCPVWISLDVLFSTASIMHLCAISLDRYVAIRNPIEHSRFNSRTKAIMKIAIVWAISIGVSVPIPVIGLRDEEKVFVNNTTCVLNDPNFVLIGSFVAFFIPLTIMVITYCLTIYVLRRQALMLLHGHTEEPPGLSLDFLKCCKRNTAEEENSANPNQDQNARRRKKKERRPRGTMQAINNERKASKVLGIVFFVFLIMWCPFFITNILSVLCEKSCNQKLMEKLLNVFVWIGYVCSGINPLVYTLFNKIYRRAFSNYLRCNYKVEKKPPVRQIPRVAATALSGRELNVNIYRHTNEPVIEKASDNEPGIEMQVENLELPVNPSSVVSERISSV
Assay: biochemical
Assay type: binding
Conditions: read-out: 5-HT2C [125I]DOI binding Ki ± sem
READOUT: pKi
Friendly reminder that pKi comes from taking -log10 of the concentration in mol/L.

Exercise: For CN[C@@H](C)Cc1ccccc1 [METH, methamphetamine, reference compound] , what is its reported pKi?
Key: 5.00

====

target: hNET (Homo sapiens, UniProt P23975); assay: biochemical; type: binding; conditions: read-out: hNET [125I]RTI-55 binding Ki
Sequence (P23975 whole entry): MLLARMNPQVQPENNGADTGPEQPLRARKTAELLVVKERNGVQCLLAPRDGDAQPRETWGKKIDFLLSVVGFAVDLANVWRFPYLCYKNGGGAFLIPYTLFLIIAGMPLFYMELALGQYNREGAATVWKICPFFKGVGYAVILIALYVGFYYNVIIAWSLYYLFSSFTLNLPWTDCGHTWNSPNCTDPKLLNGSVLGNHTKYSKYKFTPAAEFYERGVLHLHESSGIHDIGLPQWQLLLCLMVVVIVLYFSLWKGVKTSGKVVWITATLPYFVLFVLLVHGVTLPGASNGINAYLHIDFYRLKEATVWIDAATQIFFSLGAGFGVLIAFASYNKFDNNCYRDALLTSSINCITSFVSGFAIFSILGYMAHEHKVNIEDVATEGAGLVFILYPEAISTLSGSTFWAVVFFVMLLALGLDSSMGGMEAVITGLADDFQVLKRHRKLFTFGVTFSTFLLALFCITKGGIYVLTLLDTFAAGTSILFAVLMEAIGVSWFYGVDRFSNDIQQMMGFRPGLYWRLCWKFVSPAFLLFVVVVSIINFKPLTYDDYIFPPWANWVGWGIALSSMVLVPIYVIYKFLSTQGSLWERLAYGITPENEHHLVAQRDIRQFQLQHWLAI
READOUT: Ki (µM)
Write the number in µM without appending the unit.

Exercise: For CCN(CC)C(=O)[C@@H]1C=C2c3cccc4[nH]cc(c34)C[C@H]2N(C)C1 [LSD, lysergic acid diethylamide, reference compound] , what is its reported Ki?
Key: 5.6

====

tested on: rats trained to discriminate LSD (0.1 mg/kg) from saline; type: in vivo, rat; settings: LSD-trained rats; 15 min pretreatment
Rate of responding at dose of maximum DAR strictly less than 0.4 resp/s = t. Otherwise f.

COc1cc(CCN)c(OC)cc1Cl = t

Exercise: In plain terms, does COc1cc(CCN)c(OC)cc1C come in under 0.4 resp/s for Rate of responding at dose of maximum DAR?
Key: t

Exercise: Item: COc1cc(CCN)c(OC)cc1I
Key: t

Exercise: Item: CCSc1cc(OC)c(CCN)cc1OC
Key: t

Exercise: Item: CCc1cc(OC)c(CCN)cc1OC
Key: f

====

molecular target: human 5-HT2C receptor (Homo sapiens); experiment: cell-based; details: read-out: 5-HT2C Function IP-formation % maximal effect
READOUT: Emax (%)
Write the number in % without appending the unit.

CN[C@@H](C)Cc1ccccc1 [METH, methamphetamine, reference compound] = 52
COc1cc(CCN)c(OC)cc1I [2C-I, 2,5-dimethoxy-4-iodophenethylamine] = 79
CNC(C)Cc1ccc2c(c1)OCO2 (stereo not drawn) [MDMA, 3,4-methylenedioxymethamphetamine, reference compound] = 92.2
COc1cc(CC(C)N)c(OC)cc1Cl (stereo not drawn) [DOC, 2,5-Dimethoxy-4-chloroamphetamine] = 97
COc1cc(CCN)c(OC)cc1Cl [2C-C, 2,5-dimethoxy-4-chlorophenethylamine] = 93.5

Exercise: For COc1cc(CCN)c(OC)cc1C [2C-D, 2,5-dimethoxy-4-methylphenethylamine] , what is its reported Emax?
Key: 100

====

target: human 5-HT2C receptor (Homo sapiens, UniProt P28335); experiment: cell-based
READOUT: log10(EC50) (log10 of the value in nM)
Please note: log10 values; quantity EC50; unit nM.

Exercise: For COc1cc(CC(C)N)c(OC)cc1Cl (centres unmarked) , what is its reported log10(EC50)?
Key: 1.16

Exercise: Item: COc1cc(CCN)c(OC)cc1Cl
Key: 1.38

Exercise: Item: COc1cc(CCN)c(OC)cc1I
Key: 0.45

Exercise: Item: COc1cc(CCN)c(OC)cc1C
Key: 1.85

Exercise: Item: CN[C@@H](C)Cc1ccccc1 [METH, methamphetamine, reference compound]
Key: 4.87

====

target: hSERT (Homo sapiens); test: [3H]Serotonin uptake, HEK-hSERT cells; assay type: cell-based; conditions: read-out: [3H]Serotonin uptake IC50; HEK-hSERT cells; cells printed in μM
Sequence (P31645 whole entry): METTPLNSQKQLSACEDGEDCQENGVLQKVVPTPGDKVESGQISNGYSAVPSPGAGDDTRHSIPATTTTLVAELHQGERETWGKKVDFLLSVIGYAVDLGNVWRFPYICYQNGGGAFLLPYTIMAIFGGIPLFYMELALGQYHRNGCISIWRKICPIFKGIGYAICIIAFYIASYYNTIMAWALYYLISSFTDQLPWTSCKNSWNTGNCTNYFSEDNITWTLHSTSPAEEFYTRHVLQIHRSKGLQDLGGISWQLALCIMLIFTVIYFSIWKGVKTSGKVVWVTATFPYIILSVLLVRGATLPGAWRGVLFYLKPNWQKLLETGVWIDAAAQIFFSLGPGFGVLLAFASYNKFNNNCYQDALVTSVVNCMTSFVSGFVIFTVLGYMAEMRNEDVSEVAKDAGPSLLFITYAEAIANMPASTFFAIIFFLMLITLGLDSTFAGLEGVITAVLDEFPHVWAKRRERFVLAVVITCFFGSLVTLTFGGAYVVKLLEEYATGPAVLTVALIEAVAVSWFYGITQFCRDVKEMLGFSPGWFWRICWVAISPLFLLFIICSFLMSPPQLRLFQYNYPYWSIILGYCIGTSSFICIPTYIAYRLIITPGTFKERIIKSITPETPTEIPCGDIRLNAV
READOUT: IC50

Exercise: For CCN(CC)C(=O)[C@@H]1C=C2c3cccc4[nH]cc(c34)C[C@H]2N(C)C1 [LSD, lysergic acid diethylamide, reference compound] , what is its reported IC50?
Key: > 10 µM

====

molecular target: hDAT (Homo sapiens, UniProt Q01959); experiment: [3H]Dopamine uptake, HEK-hDAT cells; type: cell-based; settings: read-out: [3H]Dopamine uptake IC50; HEK-hDAT cells; cells printed in μM
Sequence (Q01959 whole entry): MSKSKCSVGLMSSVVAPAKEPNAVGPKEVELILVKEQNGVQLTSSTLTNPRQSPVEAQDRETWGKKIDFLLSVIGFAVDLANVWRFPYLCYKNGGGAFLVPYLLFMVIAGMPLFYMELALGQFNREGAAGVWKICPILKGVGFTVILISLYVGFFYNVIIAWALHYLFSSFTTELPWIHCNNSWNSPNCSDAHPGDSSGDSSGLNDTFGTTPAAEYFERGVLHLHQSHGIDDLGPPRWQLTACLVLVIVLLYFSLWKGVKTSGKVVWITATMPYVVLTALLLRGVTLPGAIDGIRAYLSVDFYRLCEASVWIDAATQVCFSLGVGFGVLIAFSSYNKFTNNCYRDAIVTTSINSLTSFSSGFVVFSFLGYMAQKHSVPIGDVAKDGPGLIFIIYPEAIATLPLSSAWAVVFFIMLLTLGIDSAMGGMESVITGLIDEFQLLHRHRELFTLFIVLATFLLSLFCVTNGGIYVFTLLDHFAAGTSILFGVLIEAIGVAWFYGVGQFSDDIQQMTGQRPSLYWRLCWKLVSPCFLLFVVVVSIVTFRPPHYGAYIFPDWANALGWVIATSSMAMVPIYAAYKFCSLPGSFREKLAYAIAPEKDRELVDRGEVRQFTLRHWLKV
READOUT: IC50

Exercise: For CCN(CC)C(=O)[C@@H]1C=C2c3cccc4[nH]cc(c34)C[C@H]2N(C)C1 [LSD, lysergic acid diethylamide, reference compound] , what is its reported IC50?
Key: > 10 µM

====

In this section, each of the molecules is paired with its reported Onset of depressant effects (within, after injection).
tested on: Male Swiss–Webster mice; experiment: Locomotor activity; assay type: in vivo, mouse; settings: mice, i.p.

Sample records with Onset of depressant effects (within, after injection):
CCc1cc(OC)c(CCN)cc1OC = ≤ 10 min
COc1cc(CCN)c(OC)cc1I = ≤ 10 min

Exercise: For COc1cc(CCN)c(OC)cc1Cl , what is its reported Onset of depressant effects (within, after injection)?
Key: ≤ 10 min

Exercise: Item: COc1cc(CCN)c(OC)cc1C
Key: ≤ 10 min

Exercise: Item: COc1cc(CC(C)N)c(OC)cc1Cl (centres unmarked)
Key: ≤ 10 min

====

Entries with their measured Ki, system human 5-HT2A receptor (Homo sapiens, UniProt P28223):
Write the number in nM without appending the unit.

Sample records with Ki:
COc1cc(CCN)c(OC)cc1C = 23.9
CCc1cc(OC)c(CCN)cc1OC = 4.5
COc1cc(CCN)c(OC)cc1Cl = 5.47
CN(C)CCc1c[nH]c2ccccc12 [DMT, N,N,-dimethyltryptamine, reference compound] = 201
COc1cc(CC(C)N)c(OC)cc1Cl (stereo not drawn) = 4

Exercise: For CCSc1cc(OC)c(CCN)cc1OC , what is its reported Ki?
Key: 12.5

====

molecular target: human 5-HT2A receptor (Homo sapiens, UniProt P28223); assay: IP-1 formation, HEK-5-HT2A cells; assay type: cell-based; settings: read-out: 5-HT2A Function IP-1 formation % maximal effect
Sequence (P28223 whole entry): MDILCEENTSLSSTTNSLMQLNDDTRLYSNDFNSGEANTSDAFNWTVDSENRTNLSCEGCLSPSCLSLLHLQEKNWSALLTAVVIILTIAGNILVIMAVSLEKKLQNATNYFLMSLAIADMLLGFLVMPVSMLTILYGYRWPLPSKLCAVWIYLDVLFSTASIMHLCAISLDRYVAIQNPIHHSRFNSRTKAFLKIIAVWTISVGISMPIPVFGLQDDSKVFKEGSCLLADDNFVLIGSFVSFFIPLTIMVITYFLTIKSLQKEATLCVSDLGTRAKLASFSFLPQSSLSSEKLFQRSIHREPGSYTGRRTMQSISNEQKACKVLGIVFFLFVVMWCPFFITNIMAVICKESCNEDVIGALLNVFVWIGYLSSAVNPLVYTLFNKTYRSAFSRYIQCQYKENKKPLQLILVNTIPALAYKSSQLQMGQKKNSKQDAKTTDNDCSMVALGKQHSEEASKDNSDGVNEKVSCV
READOUT: Emax

Sample records with Emax:
CNC(C)Cc1ccc2c(c1)OCO2 (stereo not shown) [MDMA, 3,4-methylenedioxymethamphetamine, reference compound] = 40.2%
CN[C@@H](C)Cc1ccccc1 [METH, methamphetamine, reference compound] = < 3%
CN(C)CCc1c[nH]c2ccccc12 [DMT, N,N,-dimethyltryptamine, reference compound] = 39%
CCSc1cc(OC)c(CCN)cc1OC [2C-T-2, 2,5-dimethoxy-4-ethylthiophenethylamine] = 87.4%
CCc1cc(OC)c(CCN)cc1OC [2C-E, 2,5-dimethoxy-4-ethylphenethylamine] = 125%

Moving on to the next compound.
Exercise: For COc1cc(CCN)c(OC)cc1Cl [2C-C, 2,5-dimethoxy-4-chlorophenethylamine] , what is its reported Emax?
Key: 102%

====

molecular target: hDAT (Homo sapiens, UniProt Q01959); assay: [125I]RTI-55 binding, HEK-hDAT cells; conditions: read-out: hDAT [125I]RTI-55 binding Ki; HEK-hDAT cells; cells printed in μM
READOUT: Ki

Exercise: For CCN(CC)C(=O)[C@@H]1C=C2c3cccc4[nH]cc(c34)C[C@H]2N(C)C1 [LSD, lysergic acid diethylamide, reference compound] , what is its reported Ki?
Key: > 10 µM

====

molecular target: hNET (Homo sapiens, UniProt P23975); assay: cell-based
pIC50: −log10 of the molar value.
READOUT: pIC50

COc1cc(CCN)c(OC)cc1I = < 5.09

Exercise: For CCSc1cc(OC)c(CCN)cc1OC , what is its reported pIC50?
Key: < 5.14

Exercise: Item: CN[C@@H](C)Cc1ccccc1 [METH, methamphetamine, reference compound]
Key: 7.64

====

molecular target: human 5-HT2A receptor (Homo sapiens); assay: IP-1 formation, HEK-5-HT2A cells; type: cell-based
pEC50: −log10 of the molar value.
Cut-off 7 on pEC50, inclusive. At or above means y; below means n.

Here's what some known entries look like.
COc1cc(CC(C)N)c(OC)cc1Cl (stereo not shown) = y
COc1cc(CCN)c(OC)cc1I = y
CN(C)CCc1c[nH]c2ccccc12 [DMT, N,N,-dimethyltryptamine, reference compound] = n

Exercise: Determine whether measured pEC50 meets or exceeds 7 for CNC(C)Cc1ccc2c(c1)OCO2 (stereo not shown) [MDMA, 3,4-methylenedioxymethamphetamine, reference compound]
Key: n

Exercise: Item: CCSc1cc(OC)c(CCN)cc1OC
Key: y

Exercise: Item: COc1cc(CCN)c(OC)cc1Cl
Key: y

Exercise: Item: CN[C@@H](C)Cc1ccccc1 [METH, methamphetamine, reference compound]
Key: n

Exercise: Item: COc1cc(CC(C)N)c(OC)cc1C (stereo not shown) [DOM, 2,5-dimethoxy-4-methylamphetamine, reference compound]
Key: y

Measured values drawn from paper PMC3945162 for this set.
